Data origin, for the record: PubChem BioAssay AID463109

target: Apelin receptor (Homo sapiens) (UniProt P35414); assay: apelin receptor inhibitor analogs – cell-based, luminescence, SAR follow-up (AID 463109); conditions: CHO-K1 AGTRL-1 PathHunter beta-arrestin luminescence
Sequence (P35414 whole entry, looked up): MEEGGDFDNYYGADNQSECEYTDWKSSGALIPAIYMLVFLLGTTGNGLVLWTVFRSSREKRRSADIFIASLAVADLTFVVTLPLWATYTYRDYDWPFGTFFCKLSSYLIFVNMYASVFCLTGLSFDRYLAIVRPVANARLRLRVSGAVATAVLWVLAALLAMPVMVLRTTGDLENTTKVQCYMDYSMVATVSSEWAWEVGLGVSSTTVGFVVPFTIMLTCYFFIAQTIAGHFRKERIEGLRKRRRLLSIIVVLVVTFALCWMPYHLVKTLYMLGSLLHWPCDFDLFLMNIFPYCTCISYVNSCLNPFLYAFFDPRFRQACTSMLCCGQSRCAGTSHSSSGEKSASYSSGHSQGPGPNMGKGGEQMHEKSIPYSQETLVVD
Active and inactive are the calls of the source.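 The calls were made as follows: active = mean IC50 below 10 µM; inactive = the rest.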
Respond only with the outcome that fits, drawn from active, inactive

>>> group_label("COc1cccc(/C=C/c2ccc3cccc(O)c3n2)c1OC")
"inactive"

input: Hi team, can someone confirm the assay call for `Cc1cccc(N=C2C(=O)Nc3c(Cl)cccc32)c1` ?
output: active

input: What call does the record list for `CC(C)(C)c1ccc(-n2nc(C#N)c(Cl)cc2=O)cc1` ?
output: active

input: Record request — test call for `O=C(CNc1ccccc1C(=O)O)c1ccccc1`
output: active

input: Recorded test outcome, item `COc1ccc(S(=O)(=O)NNc2nc(C)cc(C)n2)cc1[N+](=O)[O-]`
output: inactive

input: Each molecule tested received a call. Report the one for `CC(=O)Nc1ccc(NC(=O)CCC(=O)OCC(=O)c2ccc(C)c([N+](=O)[O-])c2)cc1` .
output: inactive

input: State the result this test recorded for `Cc1ccc2nc(C)cc(C(=O)OCC(=O)c3ccc(Cl)c([N+](=O)[O-])c3)c2c1` .
output: inactive

input: Called result for `FC(F)(F)c1cccc(Sc2nc(-c3ccccc3)nnc2C(F)(F)F)c1`
output: inactive

input: I'd appreciate the recorded outcome for CC1(C)CC2(CC(c3ccccc3F)c3cc(Cl)c(O)cc3O2)NC(=S)N1 (centres undefined) from this test.
output: active
